Biological target: T1, Biotinylated human VEGF-165 (Acro Biosystem) (human, UniProt P15692 207-395, biotinylated (site not stated))
T1 construct: Bought protein; also called human VEGFA
T1 sequence (P15692 other isoform, or with tags, fused parts or gaps): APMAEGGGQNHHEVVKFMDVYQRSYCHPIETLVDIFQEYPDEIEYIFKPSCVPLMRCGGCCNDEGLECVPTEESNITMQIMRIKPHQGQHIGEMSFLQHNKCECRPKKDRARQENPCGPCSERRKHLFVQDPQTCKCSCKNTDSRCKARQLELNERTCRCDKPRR
Assay: BLI, biotinylated antigen on streptavidin tips, 1:1 global fit
Please provide measured kon for the entries that follow.
Numbers only, in M⁻¹ s⁻¹.

Below, 6 binders whose answers are already recorded.
{"binder": "21A1.1 (VHH, Autonomous humanised VH domain (DotBody), from the 16C2.1-based library with heat challenge; E. coli, ATG codon 5' (possible initiator Met), 3' hexahistidine tag; also called DotBody 21A1.1) VHH: EVQLVESGGGLVQPGGSLRLSCAISGFALATTDIDWVRQAPGKGLEWVARIFNPSDFTDYADSVKGRFTISADTSKNTVYLQMNSLRAEDTAVYYCGRPAVYGYNIFLDSPTYDASQYRGQGTLVTVSS", "kon [M⁻¹ s⁻¹]": 91500}
{"binder": "21D9.1 (VHH, Autonomous humanised VH domain (DotBody), from the 16C2.1-based library with heat challenge; E. coli, ATG codon 5' (possible initiator Met), 3' hexahistidine tag; also called DotBody 21D9.1) VHH: EVQLVESGGGLVQPGGSLRLSCAISGFSLGATDIDWVRQAPGKGLEWVARIFSPSDFTDYADSVKGRFTISADTSKNTVYLQMNSLRAEDTAVYYCSRPDTYAYNIFPHTASHGAFNYRGQGTLVTVSS", "kon [M⁻¹ s⁻¹]": 48200}
{"binder": "20A3.1 (VHH, Autonomous humanised VH domain (DotBody), from the 16A2.1-based library with heat challenge; E. coli, ATG codon 5' (possible initiator Met), 3' hexahistidine tag; also called DotBody 20A3.1) VHH: EVQLVESGGGLVQPGGSLRLSCAISGFSLADTDIDWVRQAPGKGLEWVARIFSSSGSTYYADSVKGRFTISADTSKNTVYLQMNSLRAEDTAVYYCDRADSVGYNVIFPGSTYSRSGYRGQGTLVTVSS", "kon [M⁻¹ s⁻¹]": 260000}
{"binder": "23D5.1 (VHH, Autonomous humanised VH domain (DotBody), from the 16C2.1-based library without heat challenge; E. coli, ATG codon 5' (possible initiator Met), 3' hexahistidine tag; also called DotBody 23D5.1) VHH: EVQLVESGGGLVQPGGSLRLSCAISGFDLATTDIDWVRQAPGKGLEWVARIFRPSDFTDYADSVKGRFTISADTSKNTVYLQMNSLRAEDTAVYYCVRPDSYAYNILFVTRTFNALHYRGQGTLVTVSS", "kon [M⁻¹ s⁻¹]": 286000}
{"binder": "13A6 (VHH, Autonomous humanised VH domain (DotBody); also called anti-VEGF DotBody 13A6; clone 13A6) VHH: EVQLVESGGGLVQPGGSLRLSCAISGFSLAATDIDWVRQAPGKGLEWVARIFPSAGSTDYADSVKGRFTISADTSKNTVYLQMNSLRAEDTAVYYCGRSDSYSYNVFLHNPTYTALDYRGQGTLVTVSS", "kon [M⁻¹ s⁻¹]": 122000}
{"binder": "20A2.1 (VHH, Autonomous humanised VH domain (DotBody), from the 16A2.1-based library with heat challenge; E. coli, ATG codon 5' (possible initiator Met), 3' hexahistidine tag; also called DotBody 20A2.1) VHH: EVQLVESGGGLVQPGGSLRLSCAISGFPLADTDIDWVRQAPGKGLEWVARIFSSYGSTDYADSVKGRFTISADTSKNTVYLQMNSLRAEDTAVYYCGRSDSIAYNIILPASTYSSRDYRGQGTLVTVSS", "kon [M⁻¹ s⁻¹]": 97700}

Provide the reported kon of each entry below, same order.
1. 21A8.1 (VHH, Autonomous humanised VH domain (DotBody), from the 16C2.1-based library with heat challenge; E. coli, ATG codon 5' (possible initiator Met), 3' hexahistidine tag; also called DotBody 21A8.1) VHH: EVQLVESGGGLVQPGGSLRLSCAISGFSVDATDIDWVRQAPGKGLEWVARIFSPSGFTDYADSVKGRFTISADTSKNTVYLQMNSLRAEDTAVYYCDRPEFYAYNIFHDPRTVPAGNYRGQGTLVTVSS
2. 21E6.1 (VHH, Autonomous humanised VH domain (DotBody), from the 16C2.1-based library with heat challenge; E. coli, ATG codon 5' (possible initiator Met), 3' hexahistidine tag; also called DotBody 21E6.1) VHH: EVQLVESGGGLVQPGGSLRLSCAISGFTLAATDIDWVRQAPGKGLEWVARIFTPTGFSDYADSVKGRFTISADTSKNTVYLQMNSLRAEDTAVYYCGIPELYAYNIFMDIPAYNDVYYRGQGTLVTVSS
3. 16A6.1 (VHH, E. coli, ATG codon 5' (possible initiator Met), 3' hexahistidine tag; also called clone 16A6.1) VHH: EVQLVESGGGLVQPGGSLRLSCAISGFSLAATDIDWVRQAPGKGLEWVARIFPFSGSTDYTDSVKGRFTISADTSKNTVYLQMNSLRAEDTAVYYCGRSDSYSYNVFLHDPAYTALDYRGQGTLVTVSS
4. 16A2.1 (VHH, E. coli, ATG codon 5' (possible initiator Met), 3' hexahistidine tag; also called anti-VEGF DotBody 16A2.1; clone 16A2.1) VHH: EVQLVESGGGLVQPGGSLRLSCAISGFALAETDIDWVRQAPGKGLEWVARIFSSGGNTDYADSVKGRFTISADTSKNTVYLQMNSLRAEDTAVYYCGRSDSIAYNVILPNSTYTARDYRGQGTLVTVSS

## Output
1: 58000; 2: 69600; 3: 92400; 4: 394000
